Target: HCV RNA-dependent RNA polymerase (NS5B protein) (Hepatitis C virus genotype 1b, UniProt P26663)
Construct: The cDNA encoding the entire NS5B protein of HCV-Bk strain, genotype 1b; initiator Met (ATG added before the NS5B coding region) (N); made in house; host or cells: Sf9 insect cells, recombinant baculovirus (pBlueBacII, BacNS5B)
Sequence (P26663 2420-3010): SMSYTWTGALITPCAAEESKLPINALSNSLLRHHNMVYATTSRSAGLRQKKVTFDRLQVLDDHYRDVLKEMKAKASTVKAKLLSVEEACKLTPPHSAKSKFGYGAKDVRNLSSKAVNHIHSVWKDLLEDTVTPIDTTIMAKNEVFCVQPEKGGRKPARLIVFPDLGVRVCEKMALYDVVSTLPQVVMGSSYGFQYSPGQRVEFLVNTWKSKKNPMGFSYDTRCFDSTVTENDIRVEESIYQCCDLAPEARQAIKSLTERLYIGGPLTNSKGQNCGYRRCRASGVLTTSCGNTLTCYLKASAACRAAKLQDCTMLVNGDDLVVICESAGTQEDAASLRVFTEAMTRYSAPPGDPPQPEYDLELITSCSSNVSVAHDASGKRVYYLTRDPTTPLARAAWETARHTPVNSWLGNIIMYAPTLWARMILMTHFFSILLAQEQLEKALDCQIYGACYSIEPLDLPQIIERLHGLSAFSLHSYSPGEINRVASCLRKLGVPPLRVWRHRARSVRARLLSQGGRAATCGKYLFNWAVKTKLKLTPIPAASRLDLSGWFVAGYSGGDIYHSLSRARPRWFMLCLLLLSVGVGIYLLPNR
Assay text: HCV RNA-dependent RNA polymerase assay (in vitro RdRp assay, heteropolymeric RNA template)
Assay type: biochemical, HCV-Bk strain
Test parameters: natural NTP substrates of purified NS5B in the RdRp assay

>  <Molecule>
O=c1ccn([C@@H]2O[C@H](COP(=O)(O)OP(=O)(O)OP(=O)(O)O)[C@@H](O)[C@H]2O)c(=O)[nH]1 [UTP, reference compound]

>  <measured Kms for the four substrates [µM]>
1.2

$$$$
>  <Molecule>
Nc1nc2c(ncn2[C@@H]2O[C@H](COP(=O)(O)OP(=O)(O)OP(=O)(O)O)[C@@H](O)[C@H]2O)c(=O)[nH]1 [GTP, reference compound]

>  <measured Kms for the four substrates [µM]>
0.5

$$$$
>  <Molecule>
Nc1ccn([C@@H]2O[C@H](COP(=O)(O)OP(=O)(O)OP(=O)(O)O)[C@@H](O)[C@H]2O)c(=O)n1 [CTP, reference compound]

>  <measured Kms for the four substrates [µM]>
0.5

$$$$
>  <Molecule>
Nc1ncnc2c1ncn2[C@@H]1O[C@H](COP(=O)(O)OP(=O)(O)OP(=O)(O)O)[C@@H](O)[C@H]1O [ATP, reference compound]

>  <measured Kms for the four substrates [µM]>
18

$$$$

----------
This listing pairs compounds with measured IC50.
Target: HCV RNA-dependent RNA polymerase (NS5B protein) (Hepatitis C virus genotype 1b)
Construct: The cDNA encoding the entire NS5B protein of HCV-Bk strain, genotype 1b; initiator Met (ATG added before the NS5B coding region) (N)
Assay text: HCV RNA-dependent RNA polymerase assay (in vitro RdRp assay, heteropolymeric RNA template)
Test parameters: purified recombinant NS5B 200 ng; competing NTP at twice Km, other NTPs 100 μM; 2 h at 22° C.; triphosphate form tested
Measurement name: IC50 (nM)

>  <Compound>
Cc1cn([C@@H]2O[C@H](COP(=O)(O)OP(=O)(O)OP(=O)(O)O)C[C@H]2O)c(=O)nc1N

>  <Target>
HCV RNA-dependent RNA polymerase (NS5B protein) (Hepatitis C virus genotype 1b)

>  <Quantitative readout>
360

$$$$
>  <Compound>
Nc1nc(=O)n([C@@H]2O[C@H](COP(=O)(O)OP(=O)(O)OP(=O)(O)O)C[C@H]2O)cc1I [COMPQUND#26]

>  <Target>
HCV RNA-dependent RNA polymerase (NS5B protein) (Hepatitis C virus genotype 1b)

>  <Quantitative readout>
910

$$$$
>  <Compound>
Nc1nc(=O)n([C@@H]2O[C@H](COP(=O)(O)OP(=O)(O)OP(=O)(O)O)C[C@H]2O)cc1Cl

>  <Target>
HCV RNA-dependent RNA polymerase (NS5B protein) (Hepatitis C virus genotype 1b)

>  <Quantitative readout>
180

$$$$
>  <Compound>
Nc1nc(=O)n([C@@H]2O[C@H](COP(=O)(O)OP(=O)(O)OP(=O)(O)O)C[C@H]2O)cc1I [COMPOUND#18, 5-Iodo-3′-deoxycytidine-5′triphosphate]

>  <Target>
HCV RNA-dependent RNA polymerase (NS5B protein) (Hepatitis C virus genotype 1b)

>  <Quantitative readout>
6880

$$$$
>  <Compound>
Nc1nc(=O)n([C@@H]2O[C@H](COP(=O)(O)OP(=O)(O)OP(=O)(O)O)C[C@H]2O)cc1F

>  <Target>
HCV RNA-dependent RNA polymerase (NS5B protein) (Hepatitis C virus genotype 1b)

>  <Quantitative readout>
300

$$$$
>  <Compound>
O=c1[nH]c(=O)n([C@@H]2O[C@H](COP(=O)(O)OP(=O)(O)OP(=O)(O)O)C[C@H]2O)cc1Cl

>  <Target>
HCV RNA-dependent RNA polymerase (NS5B protein) (Hepatitis C virus genotype 1b)

>  <Quantitative readout>
2100

$$$$
>  <Compound>
O=c1[nH]c(=O)n([C@@H]2O[C@H](COP(=O)(O)OP(=O)(O)OP(=O)(O)O)C[C@H]2O)cc1F

>  <Target>
HCV RNA-dependent RNA polymerase (NS5B protein) (Hepatitis C virus genotype 1b)

>  <Quantitative readout>
1980

$$$$
>  <Compound>
[N-]=[N+]=N[C@H]1[C@@H](O)[C@H](n2ccc(N)nc2=O)O[C@@H]1COP(=O)(O)OP(=O)(O)OP(=O)(O)O

>  <Target>
HCV RNA-dependent RNA polymerase (NS5B protein) (Hepatitis C virus genotype 1b)

>  <Quantitative readout>
9000

$$$$
>  <Compound>
Nc1ccn([C@@H]2O[C@H](COP(=O)(O)OP(=O)(O)OP(=O)(O)O)[C@@H](F)[C@H]2O)c(=O)n1

>  <Target>
HCV RNA-dependent RNA polymerase (NS5B protein) (Hepatitis C virus genotype 1b)

>  <Quantitative readout>
55

$$$$
>  <Compound>
Nc1nc(O)c2ncn([C@@H]3O[C@H](COP(=O)(O)OP(=O)(O)OP(=O)(O)O)[C@@H](F)[C@H]3O)c2n1

>  <Target>
HCV RNA-dependent RNA polymerase (NS5B protein) (Hepatitis C virus genotype 1b)

>  <Quantitative readout>
120

$$$$

Data provenance: patent US20040248844A1
